biological target: ACVR2A on primary human myotubes (human, UniProt P27037 20-513); test: cell-based or functional assay
Sequence (P27037 20-513): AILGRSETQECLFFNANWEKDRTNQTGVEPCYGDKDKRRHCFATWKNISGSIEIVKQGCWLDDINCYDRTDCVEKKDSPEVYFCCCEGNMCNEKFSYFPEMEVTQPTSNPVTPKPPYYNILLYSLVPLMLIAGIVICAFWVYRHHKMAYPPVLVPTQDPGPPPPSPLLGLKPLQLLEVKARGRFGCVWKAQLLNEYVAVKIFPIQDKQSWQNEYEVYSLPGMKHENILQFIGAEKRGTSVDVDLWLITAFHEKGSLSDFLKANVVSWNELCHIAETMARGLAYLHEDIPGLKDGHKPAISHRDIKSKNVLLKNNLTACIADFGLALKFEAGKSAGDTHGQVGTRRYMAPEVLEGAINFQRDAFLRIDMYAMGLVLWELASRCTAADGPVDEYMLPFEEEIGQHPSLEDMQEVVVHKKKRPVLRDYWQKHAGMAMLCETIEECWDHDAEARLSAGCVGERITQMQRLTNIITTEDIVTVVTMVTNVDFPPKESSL
Readout Type: Phospho-SMAD3 Human Skeletal Muscle GDF8
# answer = number (no unit)

# count of solved cases: 2
>>> readout_number("374_C08 (antibody, V domains shown) VH: EVQLLESGGGLVQPGGSLRLSCAASGFTFDSYGMNWVRQAPGKGLEWVSGINYNSGYKSYADSVKGRFTISRDNSKNTLYLQMNSLRAEDTAVYYCARSATWHDTALDYWGQGTLVTVSS VL: DIQMTQSPSSLSASVGDRVTITCRASQSILSYVNWYQQKPGKAPKLLIYAVTSRASGVPSRFSGSGSGTDFTLTISSLQPEDFATYYCQQSYDSPLTFGGGTKVEIK")
0.585
>>> readout_number("373_D10 (antibody, V domains shown) VH: EVQLLESGGGLVQPGGSLRLSCAASGFTFDSYSMNWVRQAPGKGLEWVSNINYNSGYKGYADSVKGRFTISRDNSKNTLYLQMNSLRAEDTAVYYCARSANWHDTALDYWGQGTLVTVSS VL: DIQMTQSPSSLSASVGDRVTITCRASQSILSYVNWYQQKPGKAPKLLIYAATSRASGVPSRFSGSGSGTDFTLTISSLQPEDFATYYCQQSYDLPLTFGGGTKVEIK")
0.006

Moving on to another binder below.
Exercise: Quote Phospho-SMAD3 Human Skeletal Muscle GDF8 reported for 365_E05 (antibody, V domains shown) VH: EVQLLESGGGLVQPGGSLRLSCAASGFTFSSYGMHWVRQAPGKGLEWVAGINYNGGYTSYADSVKGRFTISRDNSKNTLYLQMNSLRAEDTAVYYCARSANWHDTALDYWGQGTLVTVSS VL: DIQMTQSPSSLSASVGDRVTITCRASQSIVSYVNWYQQKPGKAPKLLIYAATSLASGVPSRFSGSGSGTDFTLTISSLQPEDFATYYCQQSYDNPLTFGGGTKVEIK please.
Solution: 0.244

Value source: patent US20210380703A1
